assay: Tmax in C57BL/6JO1aHsd mouse brain at 10 mg/kg, po; format: ADME, organism-based; design: dose 10 mg/kg, route oral
Listing: Tmax of selected molecules
Give a bare numeral; the unit min is implied.

{"columns": ["molecularString", "Tmax, min"],
 "data": [
  ["O=C(NO)[C@@H]1[C@H](c2ccccc2)[C@H]1c1ccc(-c2cnc(C3CC3)o2)cc1", 60],
  ["O=C(NO)[C@@H]1[C@H](c2ccccc2)[C@H]1c1ccc2c(c1)CN(CC(F)(F)F)C2=O", 30]
]}

Please give the measured Tmax for this molecule: `O=C(NO)[C@@H]1[C@H](c2ccccc2)[C@H]1c1ccc(-c2cnco2)cc1` 30

---

test: Oral bioavailability in C57BL/6JO1aHsd mouse at 10 mg/kg; format: ADME, organism-based; settings: in vivo
observationType: bioavailability (%)
Give a bare numeral; the unit % is implied.

# example entries with known answers
{"columns": ["molecularString", "bioavailability, %"],
 "data": [
  ["O=C(NO)[C@@H]1[C@H](c2ccccc2)[C@H]1c1ccc2c(c1)CN(CC(F)(F)F)C2=O", 62],
  ["O=C(NO)[C@@H]1[C@H](c2ccccc2)[C@H]1c1ccc(-c2cnc(C3CC3)o2)cc1", 73]
]}

Continue with the compound presented below.
Please give the measured bioavailability for this compound: `O=C(NO)[C@@H]1[C@H](c2ccccc2)[C@H]1c1ccc(-c2cnco2)cc1` 84

---

assay: Volume of distribution at steady state in C57BL/6JO1aHsd mouse at 5 mg/kg, iv; format: ADME, organism-based; parameters: dose 5 mg/kg, route intravenous; settings: in vivo, read-out: Vdss
observationType: Vd (L/kg)
Give a bare numeral; the unit L/kg is implied.

# example entries with known answers
{"columns": ["molecularString", "Vd, L/kg"],
 "data": [
  ["O=C(NO)[C@@H]1[C@H](c2ccccc2)[C@H]1c1ccc(-c2cnco2)cc1", 0.74],
  ["O=C(NO)[C@@H]1[C@H](c2ccccc2)[C@H]1c1ccc2c(c1)CN(CC(F)(F)F)C2=O", 4.6]
]}

Continue with the compound presented below.
Please give the measured Vd for this compound: `O=C(NO)[C@@H]1[C@H](c2ccccc2)[C@H]1c1ccc(-c2cnc(C3CC3)o2)cc1` 1.6

---

assay: Ratio of drug uptake from muscle to plasma in C57BL/6JO1aHsd mouse at 10 mg/kg, po; type: ADME, organism-based; design: dose 10 mg/kg, route oral
observationType: Kp
Form: value (number only, do not type unit).

Please give the measured Kp for this compound: `O=C(NO)[C@@H]1[C@H](c2ccccc2)[C@H]1c1ccc(-c2cnc(C3CC3)o2)cc1` 0.4

---

experiment: Ratio of drug uptake from brain to plasma in C57BL/6JO1aHsd mouse at 10 mg/kg, po; type: ADME, organism-based; set-up: dose 10 mg/kg, route oral; conditions: read-out: BPR
observationType: Kp

Please give the measured Kp for this molecule: `O=C(NO)[C@@H]1[C@H](c2ccccc2)[C@H]1c1ccc(-c2cnc(C3CC3)o2)cc1` 0.3

---

assay: Tmax in C57BL/6JO1aHsd mouse muscle at 10 mg/kg, po; format: ADME, organism-based, Muscle tissue; set-up: dose 10 mg/kg, route oral
Listing: Tmax of selected molecules
Give a bare numeral; the unit h is implied.

{"columns": ["molecularString", "observationType", "unitsOfMeasure", "endpointResult"],
 "data": [
  ["O=C(NO)[C@@H]1[C@H](c2ccccc2)[C@H]1c1ccc2c(c1)CN(CC(F)(F)F)C2=O", "Tmax", "h", 1],
  ["O=C(NO)[C@@H]1[C@H](c2ccccc2)[C@H]1c1ccc(-c2cnc(C3CC3)o2)cc1", "Tmax", "h", 1]
]}

Please give the measured Tmax for this molecule: `O=C(NO)[C@@H]1[C@H](c2ccccc2)[C@H]1c1ccc(-c2cnco2)cc1` 0.5

Values compiled from ChEMBL document CHEMBL3108758.
